Could you please report measured pest or weed control at 4483.4 g/ha for the items listed next?
- Test system: Dicots
- assay-method-text: Herbicidal activity, postemergence, dicot weeds (Table II)
- Type: in vivo
- assay-conditions: post-emergence, 336 h, 4 lb./A., about 2 weeks, read-out: % control (percent of plants killed)
Write the answer as a number in %, unit excluded.

Req: GET /values?readout=pest or weed control at 4483.4 g/ha&item= "CCN(CCO)c1cc(Oc2ccc(C(F)(F)F)cc2Cl)ccc1[N+](=O)[O-]"
Resp: 100

Req: Data request, read-out pest or weed control at 4483.4 g/ha, for CNC(=O)C(C)Oc1cc(Oc2ccc(C(F)(F)F)cc2Cl)ccc1[N+](=O)[O-] (stereo not shown)
Resp: 100

Req: Request the reported pest or weed control at 4483.4 g/ha associated with "O=[N+]([O-])c1ccc(Oc2ccc(C(F)(F)F)cc2Cl)cc1OCCO"
Resp: 99

Req: May I ask what pest or weed control at 4483.4 g/ha has been recorded for "CC(=O)CCOc1cc(Oc2ccc(C(F)(F)F)cc2Cl)ccc1[N+](=O)[O-]" ?
Resp: 100

Req: Bench note: what pest or weed control at 4483.4 g/ha did "C=CCOc1cc(Oc2ccc(C(F)(F)F)cc2Cl)ccc1[N+](=O)[O-]" show?
Resp: 100

Req: Return reported pest or weed control at 4483.4 g/ha; argument: "O=[N+]([O-])c1ccc(Oc2ccc(C(F)(F)F)cc2Cl)cc1NCCO"
Resp: 99

Req: Could you tell me which pest or weed control at 4483.4 g/ha is on file for "O=C(CCl)Nc1cc(Oc2ccc(C(F)(F)F)cc2Cl)ccc1[N+](=O)[O-]" ?
Resp: 98

Req: Recorded pest or weed control at 4483.4 g/ha for "CCSC(=O)N(C(=O)SCC)c1cc(Oc2ccc(C(F)(F)F)cc2Cl)ccc1[N+](=O)[O-]" , please?
Resp: 30

Req: Value lookup for pest or weed control at 4483.4 g/ha; key = "CCN(CC)c1cc(Oc2ccc(C(F)(F)F)cc2Cl)ccc1[N+](=O)[O-]"
Resp: 96

Req: Any idea what pest or weed control at 4483.4 g/ha was measured for "CCCN(CCC)c1cc(Oc2ccc(C(F)(F)F)cc2Cl)ccc1[N+](=O)[O-]" ?
Resp: 95

Req: Entry CC(Oc1cc(Oc2ccc(C(F)(F)F)cc2Cl)ccc1[N+](=O)[O-])C(=O)O (stereo not shown) : reported pest or weed control at 4483.4 g/ha = ?
Resp: 100

Req: I would be grateful if you could share the reported pest or weed control at 4483.4 g/ha for "CCSC(=O)Nc1cc(Oc2ccc(C(F)(F)F)cc2Cl)ccc1[N+](=O)[O-]" .
Resp: 88

Req: Endpoint output: pest or weed control at 4483.4 g/ha of "CCOc1cc(Oc2ccc(C(F)(F)F)cc2C#N)ccc1[N+](=O)[O-]" . Value?
Resp: 77

Req: Please give the measured pest or weed control at 4483.4 g/ha for this molecule: O=[N+]([O-])c1ccc(Oc2ccc(C(F)(F)F)cc2Cl)cc1OCC1CO1 (stereo not shown)
Resp: 98

Req: Any idea what its pest or weed control at 4483.4 g/ha is? The molecule is COC(=O)C(C)Oc1cc(Oc2ccc(C(F)(F)F)cc2Cl)ccc1[N+](=O)[O-] (stereo not shown)
Resp: 100

Req: Fill in the blank: the reported pest or weed control at 4483.4 g/ha of "CCNc1cc(Oc2ccc(C(F)(F)F)cc2Cl)ccc1[N+](=O)[O-]" is ____.
Resp: 98

Req: Could you tell me which pest or weed control at 4483.4 g/ha is on file for "CS(=O)(=O)CCOc1cc(Oc2ccc(C(F)(F)F)cc2Cl)ccc1[N+](=O)[O-]" ?
Resp: 98

Req: Which pest or weed control at 4483.4 g/ha value belongs to "CCN(C(=O)NC)c1cc(Oc2ccc(C(F)(F)F)cc2Cl)ccc1[N+](=O)[O-]" ?
Resp: 95

Req: Which pest or weed control at 4483.4 g/ha reading was recorded for the molecule "CCOc1cc(Oc2ccc(C(F)(F)F)cc2Cl)ccc1[N+](=O)[O-]" ?
Resp: 100

Req: Bench note: what pest or weed control at 4483.4 g/ha did CC(Oc1cc(Oc2ccc(C(F)(F)F)cc2Cl)ccc1[N+](=O)[O-])C(=O)N(C)C (stereo not shown) show?
Resp: 100

Req: Item CC(Oc1cc(Oc2ccc(C(F)(F)F)cc2Cl)ccc1[N+](=O)[O-])C(N)=O (stereo not shown) has what recorded pest or weed control at 4483.4 g/ha?
Resp: 100

Req: What pest or weed control at 4483.4 g/ha value was documented for this molecule, "CC(C)Oc1cc(Oc2ccc(C(F)(F)F)cc2Cl)ccc1[N+](=O)[O-]" ?
Resp: 100

Req: Field request: pest or weed control at 4483.4 g/ha | item: "CCCCOc1cc(Oc2ccc(C(F)(F)F)cc2Cl)ccc1[N+](=O)[O-]"
Resp: 94

Req: Can you share its pest or weed control at 4483.4 g/ha? I mean this molecule: "C#CCOc1cc(Oc2ccc(C(F)(F)F)cc2Cl)ccc1[N+](=O)[O-]"
Resp: 98

Req: Could you tell me which pest or weed control at 4483.4 g/ha is on file for "Nc1cc(Oc2ccc(C(F)(F)F)cc2Cl)ccc1[N+](=O)[O-]" ?
Resp: 100

Req: Need pest or weed control at 4483.4 g/ha of "O=[N+]([O-])c1ccc(Oc2ccc(C(F)(F)F)cc2Cl)cc1N1CCOCC1" , thanks.
Resp: 99

Req: Find the recorded pest or weed control at 4483.4 g/ha belonging to "Cc1cc(Oc2ccc(C(F)(F)F)cc2C#N)ccc1[N+](=O)[O-]" and report it.
Resp: 81

Req: pest or weed control at 4483.4 g/ha lookup needed for "C#CCCOc1cc(Oc2ccc(C(F)(F)F)cc2Cl)ccc1[N+](=O)[O-]" , thanks.
Resp: 100

Req: // query pest or weed control at 4483.4 g/ha value for entry "O=C(O)COc1cc(Oc2ccc(C(F)(F)F)cc2Cl)ccc1[N+](=O)[O-]"
Resp: 100

Req: What value of pest or weed control at 4483.4 g/ha has been reported for the following molecule? "O=[N+]([O-])c1ccc(Oc2ccc(C(F)(F)F)cc2Cl)cc1OCC(F)(F)F"
Resp: 99

Req: Query (molecule): "CCCOc1cc(Oc2ccc(C(F)(F)F)cc2Cl)ccc1[N+](=O)[O-]" ; field requested: pest or weed control at 4483.4 g/ha
Resp: 100

Req: Returns the measured pest or weed control at 4483.4 g/ha for the input molecule. Input: "CCOc1cc(Oc2c(Cl)cc(C(F)(F)F)cc2Cl)ccc1[N+](=O)[O-]"
Resp: 100

Req: // pest or weed control at 4483.4 g/ha lookup, key: "COc1cc(Oc2ccc(C(F)(F)F)cc2Cl)ccc1[N+](=O)[O-]"
Resp: 100

Req: # get_value(readout='pest or weed control at 4483.4 g/ha', item= "CCC(=O)Nc1cc(Oc2ccc(C(F)(F)F)cc2Cl)ccc1[N+](=O)[O-]" )
Resp: 89
